Biological target: T1, human CLDN6, endogenously expressed on cancer cell lines (human, UniProt P56747 1-220)
T1 construct: also called Endogenous CLDN6+; CLDN6 on ARK2, OVCA429, UMUC4 cells
T1 sequence: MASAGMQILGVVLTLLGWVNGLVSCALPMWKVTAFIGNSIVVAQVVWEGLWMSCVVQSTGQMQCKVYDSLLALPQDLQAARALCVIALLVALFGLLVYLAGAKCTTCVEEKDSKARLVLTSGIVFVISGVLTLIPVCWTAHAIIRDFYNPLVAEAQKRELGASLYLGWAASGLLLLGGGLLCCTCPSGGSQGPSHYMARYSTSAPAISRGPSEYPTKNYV
Assay: FACS dose curve, labelled mAb, OVCA429 cells
measure_name: EC50 (µM)
Give the value, in units of µM, as a plain number.

// below: answered binders
binder	EC50 [µM]
AB3 (antibody, V domains shown, Full-length IgG (ExpiCHO)) VH: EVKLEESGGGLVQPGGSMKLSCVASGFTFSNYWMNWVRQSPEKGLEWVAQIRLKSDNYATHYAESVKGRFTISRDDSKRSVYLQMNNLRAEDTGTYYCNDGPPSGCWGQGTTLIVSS VL: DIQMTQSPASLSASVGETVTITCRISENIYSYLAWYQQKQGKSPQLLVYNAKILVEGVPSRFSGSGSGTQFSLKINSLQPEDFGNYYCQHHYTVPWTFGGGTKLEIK	1.1
AB8 (antibody, V domains shown, Full-length IgG (ExpiCHO)) VH: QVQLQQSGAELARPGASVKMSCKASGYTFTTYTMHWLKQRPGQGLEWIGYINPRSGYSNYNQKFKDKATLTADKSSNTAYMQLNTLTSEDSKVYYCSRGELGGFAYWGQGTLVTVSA VL: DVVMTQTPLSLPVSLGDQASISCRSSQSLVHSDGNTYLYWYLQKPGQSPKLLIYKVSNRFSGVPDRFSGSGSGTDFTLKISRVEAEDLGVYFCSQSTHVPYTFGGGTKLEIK	1.09

Turning now to a further binder:
INPUT: Give the measured EC50 of AB11 (antibody, V domains shown, Full-length IgG (ExpiCHO)) VH: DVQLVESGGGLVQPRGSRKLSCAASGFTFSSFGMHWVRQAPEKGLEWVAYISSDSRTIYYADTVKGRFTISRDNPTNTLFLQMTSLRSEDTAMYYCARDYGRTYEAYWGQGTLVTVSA VL: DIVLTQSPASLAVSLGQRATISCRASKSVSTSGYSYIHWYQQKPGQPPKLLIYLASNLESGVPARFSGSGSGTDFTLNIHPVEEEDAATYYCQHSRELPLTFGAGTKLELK .
OUTPUT: 0.835
